Catalogue of IC50 values
# Test system: HL-60
# assay_summary: Standard thymidine incorporation assay (TdR) was carried out for 48 hr with an 8 hr pulse of [3H]- thymidine (TdR8) (n=3) and ID50 value was evaluated
# Format: functional
# condition_summary: Homo sapiens, read-out: ID50 (the source's name)
Lab book: enter the figure in µM, no units written.

Worked cases, IC50 given:
> print(dat)
                                   molecule  measured.parameter  test.result
1  CCCCCCCCCCCCCCCCSCC(C[N+](C)(C)CCO)OC (stereo not drawn)                IC50         3.37
2  CCCCCCCCOCC(C[N+](C)(C)C)OC (stereo not drawn)                IC50           27

Now let's try a different one.
What the record says about CCCCCCCCCCCCCCCCSCC(COP(=O)([O-])OCC[N+](C)(C)C)OCC (stereo in doubt; 2) : IC50 is 3.11

---

# Test system: HL-60
# assay_summary: Trypan blue exclusion assay (TB) was carried out for 48 hr and the in vitro ID50 value was evaluated in the HL-60 leukemic cell system (n=2)
# Format: functional
# condition_summary: Homo sapiens, HL-60, 48 h; read-out: ID50 (the source's name)
measured_parameter: IC50 (µM)
Give just the number in µM; leave the unit off.

> print(dat)
                                   compound  test.result
1  CCCCCCC(=O)CCCCCCCCCOCC(COP(=O)([O-])OCC[N+](C)(C)C)OCC (stereo not drawn)           13
2  CCCCCCCCCCCCCCCCCCSCC(C)(COP(=O)([O-])OCC[N+](C)(C)C)OCC (stereo not drawn)         3.83

# input for lookup
Lab note: compound CCCCCCCCCCCCCCCCCC(=O)NCCOP(=O)([O-])OCC[N+](C)(C)C tested on HL-60; recorded IC50 was 4.56

---

# Tested on: HL-60
# assay_summary: Standard thymidine incorporation assay (TdR) was carried out for 48 hr with an 8 hr pulse of [3H]- thymidine (TdR8) (n=1) and ID50 value was evaluated
# Type: functional
# condition_summary: Homo sapiens, read-out: ID50 (the source's name)
measured_parameter: IC50
In your response, put the unit directly after the numeric value.

> print(dat)
                                   molecule  measured.parameter  test.result
1  CCCCCCCCCCCCCCCCSCC(C[N+]1(C)CCCC1)OCC (configuration not stated)                IC50       1.9 µM

Noted for CCCCCCCCCCCCCCCCSCC(C[N+](C)(C)C)OCCCCC (configuration not stated) : its IC50 reads 5.02 µM

---

IC50: recorded values
# Test system: HL-60
# assay_summary: Standard thymidine incorporation assay (TdR) was carried out for 48 hr and involved a 24-h pulse of [3H]- thymidine (n=3) and ID50 value was evaluated
# Assay type: functional
# condition_summary: Homo sapiens, read-out: ID50 (the source's name)

Consider the worked cases shown below.
> print(dat)
                                   compound  measured.parameter  test.result
1  CCCCCCCCCCCCCCCCOCC(C[S+](C)CCO)OC (stereo unspecified)                IC50      2.01 µM
2  CCCCCCCCCCCCCCCCSCC(COP(=O)([O-])OCC[N+](C)(C)C)OCC (stereo in doubt; 2)                IC50      2.19 µM
3  CCCCCCCCCCCCCCCCOCC(COP(=O)([O-])OCC[n+]1ccccc1)OCC (stereo unspecified)                IC50      2.56 µM
4  CCCCCCCCCCCCCCCCCC(=O)NCCCOP(=O)([O-])OCC[n+]1ccccc1                IC50      4.33 µM
5  CCCCCCCCCCCCCCCCCC(=O)NCC(COP(=O)([O-])OCC[N+](C)(C)C)OCCCCCCCCCCCCCC (stereo unspecified)                IC50     > 100 µM

Switching to the query record.
Given the compound CCCCCCCCCCCCCCCCCC(=O)NCCCOP(=O)([O-])OCC[N+](C)(C)C and test system HL-60, the measured IC50 is 6.08 µM
